Test system: Caenorhabditis elegans N2
Method: egg-laying rate relative to DMSO control (serotonin + nicotine background) (fraction of control); higher = more egg-laying
Experimental Conditions: background: 12.3 mM serotonin + 7.7 mM nicotine; 60 µM; 1 h
Please go through the items and note down their egg-laying rate.
No unit in the answer, only the number.

Form: item O=[N+]([O-])c1ccc(N2CCN(CC3CCCCC3)CC2)cc1 ; test system Caenorhabditis elegans N2; egg-laying rate: 0.994

Field egg-laying rate (system: Caenorhabditis elegans N2) for entry O=[N+]([O-])c1ccc(CSc2ccc(Cl)cc2)cc1 = 0.473

Measured egg-laying rate for this entry CCSc1nnc(-c2ccc(Cl)cc2Cl)o1 on Caenorhabditis elegans N2: 0.795

Hey, Caenorhabditis elegans N2 data for Fc1ccc(-c2cn3ccsc3n2)cc1 : egg-laying rate came out at 0.471

Lab note: compound Clc1ccc(-c2cn3ccsc3n2)cc1 tested on Caenorhabditis elegans N2; recorded egg-laying rate was 0.584

Known value: Caenorhabditis elegans N2 egg-laying rate of the compound c1ccc(CSc2nnc(-c3ccccc3)o2)cc1 equals 0.966

The recorded egg-laying rate with Caenorhabditis elegans N2 for O=C(Nc1ccc(I)cc1)c1ccco1 was 0.759

----------
Test system: Caenorhabditis elegans N2
Method: egg-laying rate relative to DMSO control (M9 buffer background) (fraction of control); higher = more egg-laying
Experimental Conditions: 60 µM, 1 h
Observed Property: egg-laying rate
Output: the number by itself.

Record Cc1ccc(-c2cnc(-c3ccncc3)o2)cc1 / Caenorhabditis elegans N2, egg-laying rate recorded as 3.94

Bench note, Caenorhabditis elegans N2: entry c1ccc(CSc2nnc(-c3ccccc3)o2)cc1 , its egg-laying rate = 8.44

Hey, Caenorhabditis elegans N2 data for Cc1ccn2cc(-c3ccc(F)cc3)nc2c1 : egg-laying rate came out at 1.94

Simply: CCOc1ccc(C(=O)c2cccs2)cc1 , Caenorhabditis elegans N2, egg-laying rate = 2.49

Noted egg-laying rate for O=[N+]([O-])c1ccc(N2CCN(CC3CCCCC3)CC2)cc1 , tested on Caenorhabditis elegans N2: 4.22

Known value: Caenorhabditis elegans N2 egg-laying rate of the compound CCC1CCC(N2CCN(c3ccc([N+](=O)[O-])cc3)CC2)CC1 (stereo not drawn) equals 7.85

Bench note, Caenorhabditis elegans N2: Brc1cccc(-c2cn3ccccc3n2)c1 , egg-laying rate reads 0.576

Entry CCSc1nnc(-c2ccc(Cl)cc2Cl)o1 under Caenorhabditis elegans N2 had egg-laying rate of 4.56

Case Cc1ccccc1C(=O)NCCc1ccccc1 , Caenorhabditis elegans N2, egg-laying rate recorded as 0.741

egg-laying rate of O=C(Nc1ccc(I)cc1)c1ccco1 , assay on Caenorhabditis elegans N2, is 3.06

Short answer on Caenorhabditis elegans N2 for Clc1ccc(-c2cn3ccsc3n2)cc1 , egg-laying rate: 1.94

Here Fc1ccc(-c2cn3ccsc3n2)cc1 was tested on Caenorhabditis elegans N2, and its egg-laying rate came to 3.02

Given the compound CCc1ccc(-c2cn3ccsc3n2)cc1 and test system Caenorhabditis elegans N2, the measured egg-laying rate is 1.53

----------
Could you please report measured egg-laying rate for the items listed next?
Tested on: Caenorhabditis elegans N2
Method: egg-laying rate relative to DMSO control (serotonin + nicotine background) (fraction of control); higher = more egg-laying
Experimental Conditions: background: 12.3 mM serotonin + 7.7 mM nicotine; 60 µM; 1 h
The answer should be a number; do not append a unit.

Data point: Ic1cccc(-c2nnc(-c3ccccc3)o2)c1 [wact-51] ; egg-laying rate = 0.995

The recorded egg-laying rate for entry O=[N+]([O-])c1ccc(N2CCN(CC3CC=CCC3)CC2)cc1 (stereo not drawn) [wact-47] equals 1.13

Entry Cc1ccccc1C(=O)NCCc1ccccc1 [wact-406] , egg-laying rate reported as 0.394
